FYI, the data here is from paper PMC5303145.

target: human α1 glycine receptor WT (Homo sapiens); conditions: EC50, α1 WT, whole-cell, oocytes, 2.5 mM tricine
Sequence (P23415 29-449 isoform P23415-2 limits assumed): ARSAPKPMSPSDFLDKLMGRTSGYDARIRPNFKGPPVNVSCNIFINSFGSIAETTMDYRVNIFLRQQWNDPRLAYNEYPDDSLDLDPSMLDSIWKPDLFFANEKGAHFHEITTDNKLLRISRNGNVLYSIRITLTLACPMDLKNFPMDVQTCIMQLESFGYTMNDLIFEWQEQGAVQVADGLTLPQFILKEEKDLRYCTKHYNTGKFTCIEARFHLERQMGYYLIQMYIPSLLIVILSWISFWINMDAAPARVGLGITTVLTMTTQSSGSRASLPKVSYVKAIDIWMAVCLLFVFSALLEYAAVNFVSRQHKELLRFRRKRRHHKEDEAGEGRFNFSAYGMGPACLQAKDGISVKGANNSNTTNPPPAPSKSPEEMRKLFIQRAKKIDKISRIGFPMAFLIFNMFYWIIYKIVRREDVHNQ

| Substance smiles | Reading unit | EC50 |
| --- | --- | --- |
| NCCS(=O)(=O)O | µM | 1960 |
